// reported remaining activity at 10 µM per item
- TARGET OF ASSAY: IKKe (Homo sapiens)
- Sequence (Q14164 1-716): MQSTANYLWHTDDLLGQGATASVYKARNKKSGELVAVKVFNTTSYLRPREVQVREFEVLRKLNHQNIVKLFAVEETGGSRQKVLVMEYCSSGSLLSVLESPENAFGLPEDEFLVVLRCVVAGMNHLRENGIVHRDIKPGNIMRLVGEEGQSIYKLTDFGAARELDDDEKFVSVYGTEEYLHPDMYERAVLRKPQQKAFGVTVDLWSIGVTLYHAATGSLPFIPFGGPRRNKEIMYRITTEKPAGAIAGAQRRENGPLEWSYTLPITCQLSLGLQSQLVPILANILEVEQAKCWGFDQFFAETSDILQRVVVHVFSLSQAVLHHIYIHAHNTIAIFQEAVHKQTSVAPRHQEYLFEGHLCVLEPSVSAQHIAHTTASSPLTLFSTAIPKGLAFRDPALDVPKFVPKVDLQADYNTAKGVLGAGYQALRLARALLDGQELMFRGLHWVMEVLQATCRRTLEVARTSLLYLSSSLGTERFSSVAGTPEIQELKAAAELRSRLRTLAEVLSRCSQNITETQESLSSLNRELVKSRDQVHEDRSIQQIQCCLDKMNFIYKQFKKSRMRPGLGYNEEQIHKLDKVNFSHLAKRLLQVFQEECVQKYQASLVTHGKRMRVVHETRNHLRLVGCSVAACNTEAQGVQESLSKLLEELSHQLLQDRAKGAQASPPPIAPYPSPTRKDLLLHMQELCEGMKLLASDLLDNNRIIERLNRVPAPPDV
- MEASUREMENT PROTOCOL: Kinase panel: IKKe
- Type: biochemical, human/mammalian
- CONDITION LABEL: compound at 10 μM, read-out: % of activity respect of the control
- Description: The DDU kinase-focused compound set contains lead-like scaffolds that are designed to target protein kinases; they have kinase hinge binding motifs. Four of the 1H-imidazopyrazinones were screened against a human/mammalian kinase panel at the University of Dundee (http://www.kinase-screen.mrc.ac.uk) at a concentration of 10 μM. At the time of testing the panel contained 79 mammalian kinases selected to provide a broad coverage of the mammalian kinome (∼500 kinases in the human genome).[3] […]
ASSAY METRIC: remaining activity at 10 µM (%)

In [3]: df
Out[3]:
                                   compound                 assay_metric  data_value
0  O=c1[nH]c2ncc(-c3ccc(F)cc3)nc2n1C1CCCCC1  remaining activity at 10 µM          88
1  C[C@H](c1ccccc1)n1c(=O)[nH]c2ncc(-c3ccccc3)nc21  remaining activity at 10 µM          91
2    O=c1[nH]c2ncc(-c3ccc(F)cc3)nc2n1CC1CC1  remaining activity at 10 µM          94
3  CC(c1ccccc1)n1c(=O)[nH]c2ncc(-c3ccc(F)cc3)nc21 (stereo not shown)  remaining activity at 10 µM         106
